Target: T1, anti-CD28 scFv (SEQ ID NO: 9)
T1 construct: also called Anti-CD28 scFv (VH-linker 1-VL)
T1 sequence (scFv, as listed by the source): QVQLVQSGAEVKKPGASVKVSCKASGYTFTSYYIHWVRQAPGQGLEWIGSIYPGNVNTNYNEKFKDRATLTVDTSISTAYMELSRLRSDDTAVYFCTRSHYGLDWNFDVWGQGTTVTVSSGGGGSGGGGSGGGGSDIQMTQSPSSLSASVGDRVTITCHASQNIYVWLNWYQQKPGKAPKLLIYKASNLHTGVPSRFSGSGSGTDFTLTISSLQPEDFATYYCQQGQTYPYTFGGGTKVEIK
Assay: competition ELISA: peptide titrated against 2 nM anti-CD28 scFv; binding of the scFv to captured biotinylated CD28 antigen is read; table prints 'IC50 nM' but the axis is Log [Peptide, uM]; no fall of the signal
pIC50: −log10 of the molar value. Ends that are not written are not given here.

| binder | pIC50 |
| --- | --- |
| SPCGLFQWMEICEF (cysteine pairing not given here; also: biotinylated, site not given here, biotinylated when captured on the plate) [Peptide-3] | < 7.00 |
| LICKSGSILILCAQ (cysteine pairing not given here; also: biotinylated, site not given here, biotinylated when captured on the plate) [Peptide-2] | < 7.00 |
| DNCYVIWGFEWQCR (cysteine pairing not given here; also: biotinylated when captured on plate, site not given here, biotinylated when captured on the plate) [Peptide-5] | < 7.00 |
